Origin of measurements: patent US12077503B2

Test system: pigweed (Amaranthus retroflexus)
Assay: Test A postemergence
Format: in vivo
Settings: 125 g ai/ha, postemergence; visual injury rating on 0 to 100 scale (0 no effect, 100 complete control), approx. 10 d
measured-attribute: Pigweed plant response rating

{"compound": "O=C1NCC(c2ccc(F)c(F)c2)C1C(=O)Nc1ccc(F)cc1Cl (centres unmarked)", "target-of-assay": "pigweed (Amaranthus retroflexus)", "meas-value": 0}
{"compound": "O=C1NCC(c2cc(F)cc(Cl)c2)C1C(=O)Nc1cccc(F)c1F (centres unmarked)", "target-of-assay": "pigweed (Amaranthus retroflexus)", "meas-value": 40}
{"compound": "O=C1NCC(c2cccc(OCC(F)F)c2)C1C(=O)Nc1ccc(F)cc1F (centres unmarked)", "target-of-assay": "pigweed (Amaranthus retroflexus)", "meas-value": 0}
{"compound": "O=C1NCC(c2ccnc(C(F)(F)F)c2)C1C(=O)Nc1cccc(F)c1F (racemic)", "target-of-assay": "pigweed (Amaranthus retroflexus)", "meas-value": 0}
{"compound": "Cc1cc(NC(=O)C2C(=O)NCC2c2cccc(OC(F)F)c2)ccc1F (centres unmarked)", "target-of-assay": "pigweed (Amaranthus retroflexus)", "meas-value": 0}
{"compound": "CN1CC(c2cccc(OC(F)(F)C(F)F)c2)C(C(=O)Nc2ccc(F)cc2F)C1=O (centres unmarked)", "target-of-assay": "pigweed (Amaranthus retroflexus)", "meas-value": 50}
{"compound": "Cc1cc(C2CN(C)C(=O)C2C(=O)Nc2ccccc2S(C)(=O)=O)ccc1F (centres unmarked)", "target-of-assay": "pigweed (Amaranthus retroflexus)", "meas-value": 40}
{"compound": "Cc1cc(NC(=O)C2C(=O)NCC2c2ccc(F)c(F)c2)ccc1F (centres unmarked)", "target-of-assay": "pigweed (Amaranthus retroflexus)", "meas-value": 0}
{"compound": "O=C1NCC(c2ccc(C(F)(F)F)c(F)c2)C1C(=O)Nc1ccc(F)cc1F (racemic)", "target-of-assay": "pigweed (Amaranthus retroflexus)", "meas-value": 20}
{"compound": "CN1CC(c2ccc(C(F)(F)F)cc2)C(C(=S)Nc2ccccc2F)C1=O (centres unmarked)", "target-of-assay": "pigweed (Amaranthus retroflexus)", "meas-value": 50}
{"compound": "O=C1NCC(c2cccc(OCC(F)F)c2)C1C(=O)Nc1ccccc1Cl (centres unmarked)", "target-of-assay": "pigweed (Amaranthus retroflexus)", "meas-value": 0}
